Each recorded value in this set is attributed to ChEMBL document CHEMBL3046282.

Tested on: Myzus persicae
Experiment: Insecticidal activity against Myzus persicae (green peach aphid) assessed as mortality at 25 degC after 72 hr at 20 mg/L
Format: functional
outcome_measure: mortality at 20 µg/mL

| chemical_string | system | outcome_measure | experimental_result |
| --- | --- | --- | --- |
| CCN(Cc1ccc(Cl)nc1)C1=C([N+](=O)[O-])CN(CCC(=O)OCCCCCCO)CN1C | Myzus persicae | mortality at 20 µg/mL | 33% |
| CCN(Cc1ccc(Cl)nc1)C1=C([N+](=O)[O-])CN(CCC(=O)OCCO)CN1C | Myzus persicae | mortality at 20 µg/mL | 100% |
| CCN(Cc1ccc(Cl)nc1)C1=C([N+](=O)[O-])CN(CCCC(=O)OCCCO)CN1C | Myzus persicae | mortality at 20 µg/mL | 92% |
| CCN(Cc1ccc(Cl)nc1)C1=C([N+](=O)[O-])CN(CCC(=O)OCCCCO)CN1C | Myzus persicae | mortality at 20 µg/mL | 83% |
| CCN(Cc1ccc(Cl)nc1)/C(=C/[N+](=O)[O-])NC | Myzus persicae | mortality at 20 µg/mL | 100% |
| CCN(Cc1ccc(Cl)nc1)C1=C([N+](=O)[O-])CN(CCC(=O)OCCCO)CN1C | Myzus persicae | mortality at 20 µg/mL | 100% |
| CCN(Cc1ccc(Cl)nc1)C1=C([N+](=O)[O-])CN(CC(=O)OCCCCCCO)CN1C | Myzus persicae | mortality at 20 µg/mL | 10% |
| CCN(Cc1ccc(Cl)nc1)C1=C([N+](=O)[O-])CN(CCCC(=O)OCCO)CN1C | Myzus persicae | mortality at 20 µg/mL | 100% |
| CCN(Cc1ccc(Cl)nc1)C1=C([N+](=O)[O-])CN(CCCC(=O)OCCCCCO)CN1C | Myzus persicae | mortality at 20 µg/mL | 25% |

* * *

Tested on: Myzus persicae
Experiment: Insecticidal activity against Myzus persicae (green peach aphid) assessed as mortality at 25 degC after 72 hr at 4 mg/L
Assay type: functional
// values below are reported mortality at 4 µg/mL
outcome_measure: mortality at 4 µg/mL (%)

| molecule | display_unit | experimental_result |
| --- | --- | --- |
| CCC(C)C(C(=O)OCCO)N1CC([N+](=O)[O-])=C(N(CC)Cc2ccc(Cl)nc2)N(C)C1 (single isomer, unassigned; (+)) | % | 30 |
| CCN(Cc1ccc(Cl)nc1)/C(=C/[N+](=O)[O-])NC | % | 100 |
| CCN(Cc1ccc(Cl)nc1)C1=C([N+](=O)[O-])CN(C(CC(C)C)C(=O)OCCO)CN1C (stereo unspecified) | % | 100 |
| CCN(Cc1ccc(Cl)nc1)C1=C([N+](=O)[O-])CN(CCC(=O)OCCCO)CN1C | % | 55 |
| CCN(Cc1ccc(Cl)nc1)C1=C([N+](=O)[O-])CN(CCC(=O)OCCO)CN1C | % | 100 |
| CCN(Cc1ccc(Cl)nc1)C1=C([N+](=O)[O-])CN(CCCC(=O)OCCO)CN1C | % | 10 |
